Where a name gives a salt, the structure may show the parent alone.
The compounds listed here are annotated with their melting point.
Measured Endpoint: melting point

compound=N#Cc1cc(C#N)cc(Oc2c(Cl)ccc(Cc3nn(COC(=O)CCC(=O)O)c4nnccc34)c2F)c1 test_result="166.1 to 169.9 °C"
compound=N#Cc1cc(Cl)cc(Oc2c(Br)ccc(Cc3nn(COC(=O)COCC(=O)O)c4nnccc34)c2F)c1 test_result="146 to 147 °C"
compound=N#Cc1cc(C#N)cc(Oc2c(Br)ccc(Cc3nn(COC(=O)CCC(=O)O)c4nnccc34)c2F)c1 test_result="175.2 to 176.5 °C"
compound=CC(C)C(=O)n1nc(Cc2ccc(Br)c(Oc3cc(Cl)cc(C#N)c3)c2F)c2ccnnc21 test_result="157.7 to 159.3 °C"
compound=N#Cc1cc(Cl)cc(Oc2c(Br)ccc(Cc3nn(COC(=O)CCC(=O)O)c4ncccc34)c2F)c1 test_result="183 to 184 °C"
compound=COC(=O)n1nc(Cc2ccc(Br)c(Oc3cc(Cl)cc(C#N)c3)c2F)c2ccnnc21 test_result="164 to 165 °C"
compound=N#Cc1cc(Cl)cc(Oc2c(Cl)ccc(Cc3nn(COC(=O)CCCC(=O)O)c4nnccc34)c2F)c1 test_result="176 to 178 °C"
compound=N#Cc1cc(Cl)cc(Oc2c(Cl)ccc(Cc3nn(COC(=O)CCC(=O)O)c4nnccc34)c2F)c1 test_result="173 to 174.8 °C"
compound=CC(=O)n1nc(Cc2ccc(Br)c(Oc3cc(Cl)cc(C#N)c3)c2F)c2ccnnc21 test_result="195.5 to 196.9 °C"
compound=CC(C)OC(=O)n1nc(Cc2ccc(Br)c(Oc3cc(Cl)cc(C#N)c3)c2F)c2ccnnc21 test_result="166.1 to 166.9 °C"
compound=CC(C)[C@H](N)C(=O)OCn1nc(Cc2ccc(Br)c(Oc3cc(Cl)cc(C#N)c3)c2F)c2ccnnc21.Cl test_result="155 to 156 °C"
compound="CC(CN(C)C)OC(=O)n1nc(Cc2ccc(Br)c(Oc3cc(Cl)cc(C#N)c3)c2F)c2ccnnc21 (stereo not drawn) (as salt: hydrochloride)" test_result="119 to 122 °C"
compound=N#Cc1cc(Cl)cc(Oc2c(Br)ccc(Cc3nn(COC(=O)CCCC(=O)O)c4nnccc34)c2F)c1 test_result="149.8 to 150.7 °C"
compound=CCOC(=O)n1nc(Cc2ccc(Br)c(Oc3cc(Cl)cc(C#N)c3)c2F)c2ccnnc21 test_result="139 to 140 °C"
compound=CC(=O)OCn1nc(Cc2ccc(Br)c(Oc3cc(Cl)cc(C#N)c3)c2F)c2ccnnc21 test_result="71.1 to 73 °C"
compound=N#Cc1cc(Cl)cc(Oc2c(Br)ccc(Cc3nn(C(=O)c4cccnc4)c4nnccc34)c2F)c1 test_result="187.7 to 188.5 °C"
compound="N#Cc1cc(Cl)cc(Oc2c(Br)ccc(Cc3nn(COC(=O)CCC(=O)O)c4nnccc34)c2F)c1 (as salt: sodium)" test_result="172.6 to 173.9 °C"
compound=N#Cc1cc(Cl)cc(Oc2c(Br)ccc(Cc3nn(COC(=O)CCCCC(=O)O)c4nnccc34)c2F)c1 test_result="159 to 160 °C"
